Listed here: items and their measured FRNT50 (focus reduction neutralization test on Vero cells).
Target: ZIKV strain H/PF/2013 (French Polynesia, 2013) virus (Zika virus, strain H/PF/2013)
Experiment: cell-based or functional assay
REPORTED METRIC: FRNT50 (focus reduction neutralization test on Vero cells)

BINDER | REPORTED MEASUREMENT
ZIKV-117 (antibody, V domains shown) VH: QVQLVESGGGVVRPGGSLRLSCAASGFTFKNYGIHWVRQAPGKGPEWVAFVRYDGNNKYYADSVKGRFTISRDNAKNTLSLQMNSLRVEDTAVYFCARDPETFGGFDYWGQGTLVTVSS VL: ETVMTQSPATLSVSPGERGTLSCRASESVSSNLAWYQQKPGKAPRLLIYGASTRATGIPDRFSGSGSGTEFTLTISSLQSEDFAVYYCQQYYYSPRTFGQGTKVEVK | 5 ng/mL
ZIKV-216 (antibody, V domains shown) VH: EVQLVQSGAEGKKPGESLKISCKGSGYNFSNYWIGWVRQMPGKGLEWMGIIYPGDSDTRYSPSFQGQVTISADKSINTAYLQWRSLRASDSAMFYCARGVMITTPNPYDWFDAWGQGTLVTVSS VL: QSALTQPASVSGSPGQSITISCTGTGSDIGTYDYVSWYQQHPGKAPKLMIYGVTKRPSGVSHRFSGSKSVNTASLTISGLQAEDEADYFCSSYSTSSTFVVFGGGTKLTVL | 16 ng/mL
ZIKV-116 (antibody, V domains shown) VH: EVKLVESGRGLVRPGGSLRLSCAASGFTFSNYAMSWVRQGPGMGLEWVSTITADSDSKYYVDSVKGRFTISRDNSKDTLFLHMTSLRAEDTAVYYCAKDRLSRGVGELYDSWGQGTLVTVSQ VL: DIQMTQSPSTLSASVGDRVTITCRASQSIDVWLAWYQQKPGKAPKLLMYKTSTLQTGVPSRFSGSGSGTEFTLTISSLQTDDFATYYCQKYDSYPWTFGPGTKVEIK | 16 ng/mL
ZIKV-195 (antibody, V domains shown) VH: QVQVVESGGGVVQPGRSLRLSCAASGFTFSSSAMHWVRQAPGKGLEWVAVISYDGSNKYYGDSVKGRFTISRDNSKNTLYLQMHSLRAEDTAVYYCAKDRDAYNTVGYFAYYYGMDVWGQGTLVTVSS VL: QSVLTQPPSVSEAPRQRVTISCSGSSSNIGNNAVNWYQQLPGKAPKLLIYYDDLLPSGVSDRFSGSKSGTSASLAISGLQSEDEADYYCAAWDDSLTRYVFGTGTKVTVL | 346 ng/mL

Origin of the recorded values: patent US11021533
